test: Acute toxicity (LD50, Behrens-Karber method); type: in vivo, ICR mice; details: mouse, in vivo, ip, mortality during 30 days
Listed below: LD50 at 720 h values for each entry.
Please respond with the number in mg/kg and leave the unit unwritten.

Below, 5 compounds whose answers are already recorded.
1) C=C(C)CN(C[C@H]1O[C@H](OC(C)CC)[C@H](O)[C@@H](O)[C@@H]1O)C(=O)N(CCCl)N=O (stereo partly drawn)
515
2) COCCN(C[C@H]1O[C@H](OCC(C)C)[C@@H](O)[C@@H](O)[C@@H]1O)C(=O)N(CCCl)N=O
620
3) CCCCN(C[C@H]1O[C@H](OCCCOC)[C@H](O)[C@@H](O)[C@@H]1O)C(=O)N(CCCl)N=O
450
4) CCC(C)O[C@H]1O[C@H](CN(CCC(C)(C)C)C(=O)N(CCCl)N=O)[C@@H](O)[C@H](O)[C@H]1O (stereo partly drawn)
470
5) CC(C)CN(C[C@H]1O[C@@H](OCCN2CCOCC2)[C@H](O)[C@@H](O)[C@@H]1O)C(=O)N(CCCl)N=O
520

Please give the measured LD50 at 720 h for this compound: COCCCN(C[C@H]1O[C@H](OCC(C)C)[C@H](O)[C@H]1O)C(=O)N(CCCl)N=O
520

Sample COCCN(C(=O)N(CCCl)N=O)[C@@H]1[C@@H](OCCc2ccccc2)O[C@H](CO)[C@@H](O)[C@H]1O — what was its LD50 at 720 h?
500

Field request: LD50 at 720 h | item: CC(C)CO[C@H]1O[C@H](CN(CC(C)C)C(=O)N(CCCl)N=O)[C@H](O)[C@H](O)[C@H]1O
650

Reported LD50 at 720 h for CCC(C)O[C@H]1O[C@H](CN(CC(C)C)C(=O)N(CCCl)N=O)[C@@H](O)[C@H](O)[C@H]1O (stereo partly drawn) : what is it?
510

###

Experiment: Acute toxicity (LD50, Behrens-Karber method)
Format: in vivo, ICR mice
Conditions: mouse, in vivo, ip, mortality during 30 days
Protocol: Test compounds, dissolved or suspended in 0.5% aqueous CMC, were each intraperitoneally administered to ICR mice in a dose of 0.1 ml per 10 g body weight. LD50 (mg/kg) value of each test compound was calculated from the mortality of mice during 30 days by the Behrens-Karber method.
MEASUREMENT LABEL: LD50 at 720 h (mg/kg)
Hi! Could you send only the number? It should be in mg/kg, unit omitted.

See these solved cases before continuing.
1) O=NN(CCCl)C(=O)N(CCC1CCCC1)C[C@H]1O[C@H](OC2CCCCC2)[C@H](O)[C@@H](O)[C@@H]1O
560
2) CC(C)CO[C@@H]1O[C@H](CN(CCC(C)(C)C)C(=O)N(CCCl)N=O)[C@@H](O)[C@H](O)[C@H]1O
480
3) COc1ccc(CO[C@H]2O[C@H](CN(C(=O)N(CCCl)N=O)C(C)(C)C)[C@@H](O)[C@H](O)[C@H]2O)cc1
420

Kindly consider the entry below.
Quick one: LD50 at 720 h for COc1ccc(CN(C(=O)N(CCCl)N=O)[C@H]2[C@@H](OCC(C)C)O[C@H](CO)[C@H](O)[C@@H]2O)cc1 ?
550

###

Reported Therapeutic ratio TR values for a set of molecules
test system: Leukemia L1210; test: Activity against Leukemia L1210, intraperitoneal, increase in life span of mice; assay type: in vivo, female mice (BDF1 family); details: ip; O.D./ILS30
Enter the number alone.

1) CCCCOC1OC(CO)C(O)C(N(CC(C)OC)C(=O)N(CCCl)N=O)C1O (centres unmarked)
39.8
2) CC(C)CN(C[C@H]1O[C@@H](OC2CCCCC2)[C@@H](O)[C@@H]1O)C(=O)N(CCCl)N=O
47.2
3) COc1cccc(CO[C@H]2O[C@H](CN(CC(C)C)C(=O)N(CCCl)N=O)[C@@H](O)[C@H](O)[C@H]2O)c1OC
33.1

// query Therapeutic ratio TR value for entry COCCN(C[C@H]1O[C@H](OCC(C)C)[C@H](O)[C@@H](O)[C@@H]1O)C(=O)N(CCCl)N=O
62.1

Find the recorded Therapeutic ratio TR belonging to CCCCN(C(=O)N(CCCl)N=O)C1C(O)C(CO)OC(OCCCOC)C1O (centres unmarked) and report it.
38.4

Any idea what its Therapeutic ratio TR is? The molecule is CCCCO[C@H]1O[C@H](CN(C)C(=O)N(CCCl)N=O)[C@@H](O)[C@H](O)[C@H]1O
33.3

Form field: reported Therapeutic ratio TR of CO[C@H]1O[C@H](CNC(=O)N(CCCl)N=O)[C@@H](O)[C@H](O)[C@H]1O [Compound 6MCαG, reference compound]
25.5

Reported Therapeutic ratio TR for COCCCN(C(=O)N(CCCl)N=O)[C@@H]1[C@@H](O)[C@@H](OCC(C)C)O[C@@H]1CO : what is it?
28.7

Give the measured Therapeutic ratio TR of COCC(C)N(C[C@H]1O[C@H](OCCc2ccccc2)[C@@H](O)[C@H](O)[C@@H]1O)C(=O)N(CCCl)N=O (some centres unmarked) .
36.4

Therapeutic ratio TR for CC(C)CO[C@H]1O[C@H](CN(CC2CCCO2)C(=O)N(CCCl)N=O)[C@@H](O)[C@H](O)[C@H]1O (some centres unmarked) ?
66.7

Return reported Therapeutic ratio TR; argument: COCC(C)N(C(=O)N(CCCl)N=O)[C@H]1[C@@H](O)[C@@H](CO)O[C@H](OCC(C)C)[C@@H]1O (some centres unmarked)
40.2
